Measurement Protocol: chemical genetic growth profiling, strain panel (AID 1159580);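 also: tested at 20 µM; growth read once vehicle control cultures reached saturation at 30 °C; 1 = growth at the plate median or of vehicle wells; lower values mean less growth of the strain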
Condition Parameters: S. cerevisiae deletion strains, growth OD, locus YOR144C, strain elg1, hits give low values
The campaign covered roughly 5,500 compounds. About 2,000 (36%) were called active. Not shown: some 18% with an inconclusive outcome. Some of the results follow.
Reported Metric: normalized growth

These recorded examples may help you get a feel for the data.
>>> measured("CC(=O)c1ccc(O)c(CC=C(C)C)c1")
"0.979 (inactive)"
>>> measured("O=C(OCc1ccccc1)c1ccccc1")
"0.974 (inactive)"

Give its normalized growth value. Item: CC(=O)c1cc(CC=C(C)C)c(O)c(CC=C(C)C)c1 0.981 (inactive)
